- SYSTEM_NAME: T1, SARS-CoV-2 RBD-mFc (SARS-CoV-2, UniProt P0DTC2 319-541)
- T1 construct: range 319-541
- ASSAY_NOTES: competition ELISA: RBD-mFc on coated ACE2-His
pIC50: −log10 of the molar value.
# maps each entry to its pIC50
ASSAY_METRIC: pIC50

SA3830 (antibody, V domains shown) VH: QVQLVESGGGLIQPGRSLSLSCAASGFNFDEYSMHWVRQRPGKGLEWVSGIKYNSNTILYADSVKGRFTVSRDNSKNSLYLQMNSLRAEDTAVYYCARDAMRGGDFDHWGQGTLITVSS VL: DIQMTQSPSYLSASAGDRVTITCRASQSISDWLAWYQHKPGKAPKLLIYKASRLENGVPSRFRGSGSATDFTLTISSLQAEDVAVYYCQQYYSTTWTFGQGTKVDIK :: 7.99
SA3856 (antibody, V domains shown) VH: QMQLVESGGGLIQPGGSLRLSCAASGFTVTSAYMSWVRQAPGKGLEWVSIIYGGGSTYYADSVKGRFTISRDNSKNTLYLQMNSLRAEDTAVYYCTGPYPGRYDYWGRGTLVTVSS VL: DIQMTQSPSSLSASVGDRVIITCRASQDIRTSLAWFQQRLGEAPRSLIYDASSLQNGVPSKFRGSGSGTDFTLTISSLQPEDFATYYCQQYKTVPLTFGGGTKVEIK :: 7.60
SA4053 (antibody, V domains shown) VH: EVQLVQSGGGLVQPGGSLRLSCADSGFTFSSYWMSWVRQVPGKGLEWVANIKQDGSEKYYVDSVKGRFTISRDNAKNSLYLQMNSLRAEDTAVYYCARDVGRGYCSSTSCYRFGGREDFFDYWGQGTLVTVSS VL: QLVLTQPPSVSAAPGQRVTISCSGSFSNVGNNFVSWYRHLPGTAPELLIYDNNQRPSGIPDRFSASKSGTSATLAITGLHTGDEADYYCGTWDTSLSGVVFGGGTKLTVL :: 7.39
SA3838 (antibody, V domains shown) VH: QVQLVESGAEVKKPGASVRVSCKISGYIFTELSIHWVRQAPGKGLEWMGGFDPEEGKTIYAQKFQGRVTMTEDTSTDTAYMELSSLRSEDTAVYYCAKIGHLGDFWYWGQGTLITVSS VL: QSALTQPASVSGSPGQSITISCTGTTSDIGSYDYVSWYQQHPGKAPKLIIYGVTRRPSGVSNRFSGSKSGNTASLTISRLLTEDEAEYYCATYTSSATYVFGTGTKVTVL :: 8.66
SA4050 (antibody, V domains shown) VH: QVQLVESGAEVKKPGASVKVSCKASGYTFTGYFIHWVRQAPGQGLEWMGWINPNSGGTNYAQKFQGRVTMTRDTSISTAYMELSRLRSDDTAVYYCARVPHLSGYYYEGVLGYFDYWGQGTLVTVSS VL: QSALTQPASVSGSPGQSITISCTGTSIDIGSYNFVSWYQRHPGKAPRLLIYDVSDRPSGVSNRFSGSKSANTASLTISGLQAEDEADYYCSSYTSSSLWVFGGGTKLTVL :: 8.50

Data origin: patent KR20220054080A
